// provenance: ChEMBL document CHEMBL1138987

For each record, write down the corresponding pEC50.
- assay.target: Melanocortin receptor 3 (Homo sapiens, UniProt P41968)
- Sequence (P41968 whole entry): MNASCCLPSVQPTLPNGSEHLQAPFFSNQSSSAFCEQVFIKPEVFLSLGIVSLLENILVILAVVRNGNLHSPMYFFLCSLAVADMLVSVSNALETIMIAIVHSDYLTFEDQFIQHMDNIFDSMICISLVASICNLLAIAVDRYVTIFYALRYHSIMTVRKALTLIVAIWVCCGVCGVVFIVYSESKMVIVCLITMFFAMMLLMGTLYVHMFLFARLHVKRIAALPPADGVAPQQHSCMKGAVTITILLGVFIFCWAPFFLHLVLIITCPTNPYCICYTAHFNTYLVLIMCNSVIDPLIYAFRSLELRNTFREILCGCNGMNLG
- test.summary: Activity against hMC3R transfected in HEK293 cells by intracellular cAMP accumulation
In plain terms, pEC50 is the concentration in mol/L turned into minus its base-10 logarithm.

Data request: # input compound: `CCCC[C@@H]1NC(=O)CC[C@@H](C(N)=O)NC(=O)[C@H](Cc2c[nH]c3ccccc23)NC(=O)[C@H](CCCN=C(N)N)NC(=O)[C@@H](Cc2ccccc2)NC(=O)[C@H](CCC(N)=O)NC1=O` ; wanted: its pEC50
Data returned: 5.77

Data request: # input compound: `CCCC[C@@H]1NC(=O)CC[C@@H](C(N)=O)NC(=O)[C@H](Cc2c[nH]c3ccccc23)NC(=O)[C@H](CCCN=C(N)N)NC(=O)[C@@H](Cc2ccccc2)NC(=O)[C@H](CCCN=C(N)N)NC1=O` ; wanted: its pEC50
Data returned: 8.92

Data request: # input compound: `CCCC[C@@H]1NC(=O)CC[C@@H](C(N)=O)NC(=O)[C@H](Cc2c[nH]c3ccccc23)NC(=O)[C@H](CCCN=C(N)N)NC(=O)[C@@H](Cc2ccccc2)NC(=O)[C@H](Cc2c[nH]cn2)NC1=O` ; wanted: its pEC50
Data returned: 7.43

Data request: # input compound: `CCCC[C@@H]1NC(=O)CC[C@@H](C(N)=O)NC(=O)[C@H](Cc2c[nH]c3ccccc23)NC(=O)[C@H](CCCN=C(N)N)NC(=O)[C@@H](Cc2ccc3ccccc3c2)NC(=O)[C@H](CCC(=O)O)NC1=O` ; wanted: its pEC50
Data returned: 5.55

###

- assay.target: Melanocortin receptor 4 (Homo sapiens)
- test.summary: Activity against hMC4R transfected in HEK293 cells by intracellular cAMP accumulation
pEC50: −log10 of the molar value.
For each record, write down the corresponding pEC50.

Data request: # input compound: `CCCC[C@@H]1NC(=O)CC[C@@H](C(N)=O)NC(=O)[C@H](Cc2c[nH]c3ccccc23)NC(=O)[C@H](CCCN=C(N)N)NC(=O)[C@@H](Cc2ccc3ccccc3c2)NC(=O)[C@H](CCC(N)=O)NC1=O` ; wanted: its pEC50
Data returned: 6.89

Data request: # input compound: `CCCC[C@@H]1NC(=O)CC[C@@H](C(N)=O)NC(=O)[C@H](Cc2c[nH]c3ccccc23)NC(=O)[C@H](CCCN=C(N)N)NC(=O)[C@@H](Cc2ccc3ccccc3c2)NC(=O)[C@H](CCC(=O)O)NC1=O` ; wanted: its pEC50
Data returned: < 5.00

Data request: # input compound: `CCCC[C@@H]1NC(=O)CC[C@@H](C(N)=O)NC(=O)[C@H](Cc2c[nH]c3ccccc23)NC(=O)[C@H](CCCN=C(N)N)NC(=O)[C@@H](Cc2ccc3ccccc3c2)NC(=O)[C@H](Cc2cnc[nH]2)NC1=O` ; wanted: its pEC50
Data returned: < 5.00

###

For each record, write down the corresponding EC50.
- assay.target: Melanocortin receptor 4 (Homo sapiens)
- test.summary: Activity against hMC4R transfected in HEK293 cells by intracellular cAMP accumulation
- Assay type: functional, cell-based

Data request: # input molecule: `CCCC[C@@H]1NC(=O)CC[C@@H](C(N)=O)NC(=O)[C@H](Cc2c[nH]c3ccccc23)NC(=O)[C@H](CCCN=C(N)N)NC(=O)[C@@H](Cc2ccccc2)NC(=O)[C@H](CCC(=O)O)NC1=O` ; wanted: its EC50
Data returned: > 10000 nM

Data request: # input molecule: `CCCC[C@@H]1NC(=O)CC[C@@H](C(N)=O)NC(=O)[C@H](Cc2c[nH]c3ccccc23)NC(=O)[C@H](CCCN=C(N)N)NC(=O)[C@@H](Cc2ccccc2)NC(=O)[C@H](CCCC)NC1=O` ; wanted: its EC50
Data returned: > 1000 nM

Data request: # input molecule: `CCCC[C@@H]1NC(=O)CC[C@@H](C(N)=O)NC(=O)[C@H](Cc2c[nH]c3ccccc23)NC(=O)[C@H](CCCN=C(N)N)NC(=O)[C@@H](Cc2ccccc2)NC(=O)[C@H](Cc2c[nH]cn2)NC1=O` ; wanted: its EC50
Data returned: 2000 nM

###

- assay.target: Melanocortin receptor 4 (Homo sapiens, UniProt P32245)
- Sequence (P32245 whole entry): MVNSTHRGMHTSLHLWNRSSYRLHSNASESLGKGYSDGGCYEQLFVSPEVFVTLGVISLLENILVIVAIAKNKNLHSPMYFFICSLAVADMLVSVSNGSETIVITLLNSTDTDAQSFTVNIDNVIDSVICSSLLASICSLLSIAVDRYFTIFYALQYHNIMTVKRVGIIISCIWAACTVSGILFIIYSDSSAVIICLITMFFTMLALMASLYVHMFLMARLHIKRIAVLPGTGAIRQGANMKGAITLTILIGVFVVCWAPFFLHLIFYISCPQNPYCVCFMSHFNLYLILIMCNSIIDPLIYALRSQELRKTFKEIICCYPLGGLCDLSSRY
- test.summary: Activity against hMC4R transfected in HEK293 cells by intracellular cAMP accumulation
For each record, write down the corresponding pEC50.
In plain terms, pEC50 is the concentration in mol/L turned into minus its base-10 logarithm.

Data request: I'm curious: which pEC50 was measured for `CCCC[C@@H]1NC(=O)CC[C@@H](C(N)=O)NC(=O)[C@H](Cc2c[nH]c3ccccc23)NC(=O)[C@H](CCCN=C(N)N)NC(=O)[C@@H](Cc2ccccc2)NC(=O)[C@H](C(C)C)NC1=O` tested on Melanocortin receptor 4 (Homo sapiens, UniProt P32245)?
Data returned: 5.52

Data request: I'm curious: which pEC50 was measured for `CCCC[C@@H]1NC(=O)CC[C@@H](C(N)=O)NC(=O)[C@H](Cc2c[nH]c3ccccc23)NC(=O)[C@H](CCCN=C(N)N)NC(=O)[C@@H](Cc2ccc3ccccc3c2)NC(=O)[C@H](CCCN=C(N)N)NC1=O` tested on Melanocortin receptor 4 (Homo sapiens, UniProt P32245)?
Data returned: 6.28

Data request: I'm curious: which pEC50 was measured for `CCCC[C@@H]1NC(=O)CC[C@@H](C(N)=O)NC(=O)[C@H](Cc2c[nH]c3ccccc23)NC(=O)[C@H](CCCN=C(N)N)NC(=O)[C@@H](Cc2ccccc2)NC(=O)[C@@H]2CCCN2C1=O` tested on Melanocortin receptor 4 (Homo sapiens, UniProt P32245)?
Data returned: 5.00

Data request: I'm curious: which pEC50 was measured for `CCCC[C@@H]1NC(=O)CC[C@@H](C(N)=O)NC(=O)[C@H](Cc2c[nH]c3ccccc23)NC(=O)[C@H](CCCN=C(N)N)NC(=O)[C@@H](Cc2ccc3ccccc3c2)NC(=O)[C@H](C(C)C)NC1=O` tested on Melanocortin receptor 4 (Homo sapiens, UniProt P32245)?
Data returned: 7.80

Data request: I'm curious: which pEC50 was measured for `CCCC[C@@H]1NC(=O)CC[C@@H](C(N)=O)NC(=O)[C@H](Cc2c[nH]c3ccccc23)NC(=O)[C@H](CCCN=C(N)N)NC(=O)[C@@H](Cc2ccccc2)NC(=O)[C@H](CCCN=C(N)N)NC1=O` tested on Melanocortin receptor 4 (Homo sapiens, UniProt P32245)?
Data returned: 6.76

###

- assay.target: Melanocortin receptor 4 (Homo sapiens)
- test.summary: Inhibitory activity against hMC4R transfected in HEK293 cells
observed.property: pIC50
In plain terms, pIC50 is the concentration in mol/L turned into minus its base-10 logarithm.

Data request: # input compound: `CCCC[C@@H]1NC(=O)CC[C@@H](C(N)=O)NC(=O)[C@H](Cc2c[nH]c3ccccc23)NC(=O)[C@H](CCCN=C(N)N)NC(=O)[C@@H](Cc2ccc3ccccc3c2)NC(=O)[C@H](CCCN=C(N)N)NC1=O` ; wanted: its pIC50
Data returned: 7.11

Data request: # input compound: `CCCC[C@@H]1NC(=O)CC[C@@H](C(N)=O)NC(=O)[C@H](Cc2c[nH]c3ccccc23)NC(=O)[C@H](CCCN=C(N)N)NC(=O)[C@@H](Cc2ccc3ccccc3c2)NC(=O)[C@@H]2CCCN2C1=O` ; wanted: its pIC50
Data returned: 6.00

###

- assay.target: Melanocortin receptor 5 (Homo sapiens)
- Sequence (P33032 whole entry): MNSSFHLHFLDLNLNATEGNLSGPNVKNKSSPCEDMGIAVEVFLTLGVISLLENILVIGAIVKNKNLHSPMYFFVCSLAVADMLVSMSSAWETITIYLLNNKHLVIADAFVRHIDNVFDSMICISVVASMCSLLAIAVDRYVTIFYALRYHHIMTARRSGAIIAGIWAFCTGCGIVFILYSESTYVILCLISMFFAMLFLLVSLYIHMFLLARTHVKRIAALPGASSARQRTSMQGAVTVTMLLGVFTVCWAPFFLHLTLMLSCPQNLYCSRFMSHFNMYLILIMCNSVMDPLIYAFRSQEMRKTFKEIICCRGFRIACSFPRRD
- test.summary: Activity against hMC5R transfected in HEK293 cells by intracellular cAMP accumulation
observed.property: pEC50
In plain terms, pEC50 is the concentration in mol/L turned into minus its base-10 logarithm.

Data request: # input compound: `CCCC[C@@H]1NC(=O)CC[C@@H](C(N)=O)NC(=O)[C@H](Cc2c[nH]c3ccccc23)NC(=O)[C@H](CCCN=C(N)N)NC(=O)[C@@H](Cc2ccccc2)NC(=O)[C@@H]2CCCN2C1=O` ; wanted: its pEC50
Data returned: 6.07

Data request: # input compound: `CCCC[C@@H]1NC(=O)CC[C@@H](C(N)=O)NC(=O)[C@H](Cc2c[nH]c3ccccc23)NC(=O)[C@H](CCCN=C(N)N)NC(=O)[C@@H](Cc2ccc3ccccc3c2)NC(=O)[C@H](CCCC)NC1=O` ; wanted: its pEC50
Data returned: 6.70

###

- assay.target: Melanocyte-stimulating hormone receptor (Homo sapiens, UniProt Q01726)
- Sequence (Q01726 whole entry): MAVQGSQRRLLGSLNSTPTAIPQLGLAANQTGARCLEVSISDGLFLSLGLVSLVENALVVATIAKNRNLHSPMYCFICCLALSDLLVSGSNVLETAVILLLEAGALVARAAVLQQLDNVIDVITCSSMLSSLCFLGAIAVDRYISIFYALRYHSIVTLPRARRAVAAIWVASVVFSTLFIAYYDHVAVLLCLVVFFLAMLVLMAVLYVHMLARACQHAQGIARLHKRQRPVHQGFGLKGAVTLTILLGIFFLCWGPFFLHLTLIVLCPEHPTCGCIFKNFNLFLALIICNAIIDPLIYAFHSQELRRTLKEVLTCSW
- test.summary: Inhibitory activity against hMC1R transfected in HEK293 cells
- Type: cell-based
For each record, write down the corresponding IC50.

Data request: # input molecule: `CCCC[C@@H]1NC(=O)CC[C@@H](C(N)=O)NC(=O)[C@H](Cc2c[nH]c3ccccc23)NC(=O)[C@H](CCCN=C(N)N)NC(=O)[C@@H](Cc2ccccc2)NC(=O)[C@H](CCCC)NC1=O` ; wanted: its IC50
Data returned: > 10 µM

Data request: # input molecule: `CCCC[C@@H]1NC(=O)CC[C@@H](C(N)=O)NC(=O)[C@H](Cc2c[nH]c3ccccc23)NC(=O)[C@H](CCCN=C(N)N)NC(=O)[C@@H](Cc2ccc3ccccc3c2)NC(=O)[C@@H]2CCCN2C1=O` ; wanted: its IC50
Data returned: > 10 µM

Data request: # input molecule: `CCCC[C@@H]1NC(=O)CC[C@@H](C(N)=O)NC(=O)[C@H](Cc2c[nH]c3ccccc23)NC(=O)[C@H](CCCN=C(N)N)NC(=O)[C@@H](Cc2ccc3ccccc3c2)NC(=O)[C@H](CCC(=O)O)NC1=O` ; wanted: its IC50
Data returned: > 10 µM
